# Test system: NCI-H460 lung
# EXPERIMENT_DESCRIPTION: NCI tumour cell line growth inhibition, 48 h
Provide the recorded TGI for the entries that follow.

What value of TGI has been recorded for this entry: O=[N+]([O-])C1(C2([N+](=O)[O-])CCCC2)CCCC1
> 100 µM

What value of TGI has been recorded for this entry: C[C@@H]1C(O)CC[C@H](C)C12CC=CC2=O (stereo partly specified)
> 100 µM

What value of TGI has been recorded for this entry: COc1ccc(/C=C\c2cc(OC)c(OC)c(OC)c2)c(NS(=O)(=O)c2ccc(C)cc2)c1O
> 37.9 µM

What value of TGI has been recorded for this entry: COc1cc2c(c(OC)c1OC)C(=O)CC2N (stereo unspecified)
> 100 µM

What value of TGI has been recorded for this entry: Nc1cccc(OCc2nc(N)nc(N)c2-c2ccc(Cl)cc2)c1
> 100 µM

What value of TGI has been recorded for this entry: Cc1cc(=Nc2ccc3c(c2)c(N)cc(C)[n+]3C)nc(N)n1C
> 100 µM
